Parameter GI50: see the listing below.
tested on: OVCAR-5 ovarian; assay: NCI tumour cell line growth inhibition, 48 h

Example results:
O=C1c2cccc3c([N+](=O)[O-])ccc(c23)C(=O)N1CCCCl	> 10000 nM
Nc1nc2ccccc2c2[nH]c3ccccc3c12	1840 nM
COc1ccc(C2CC(c3ccc4ccccc4c3)=NN2/C=C2\SC(=S)N(NC(=O)Cc3ccccc3Nc3c(Cl)cccc3Cl)C2=O)cc1 (centres undefined)	1740 nM

Next item in the queue.
IN: Can you share its GI50? I mean this molecule: `Cc1ccc(C(=O)Nc2ccc(CN3CCN(C)CC3)c(C(F)(F)F)c2)cc1C#Cc1cnc(N)c2ccc(C#N)cc12`
OUT: 5850 nM

----------
tested on: NCI-H522 lung; experiment: NCI tumour cell line growth inhibition, 48 h
Let's look at some compounds and their measured TGI.
A number alone suffices; assume µM.

Example cases with answers are listed next.
Cc1ccc([N+]2=NC(c3ccc([N+](=O)[O-])cc3)=NN(c3ccccc3)C2)cc1	39
Nc1ncnc2c1ncn2C1OC(CO)CC1O (configuration not stated)	38.7
CCOc1ccccc1NC(=O)CSc1nnc(Cc2ccccc2)o1	40.7
OCCNC(=S)Nc1ccc(-c2nc(N3C[C@H]4CC[C@@H](C3)O4)c3cccn3n2)cc1	3.37

IN: Which TGI reading was recorded for the compound S=P(C1CCCCC1)(C1CCCCC1)C(c1cccnc1)N1CCCC1 (configuration not stated) ?
OUT: 41.2

IN: Entry to check: `CCCCCCCCCCCCCCCCSS(C)(=O)=O`
OUT: 11

----------
test system: HL-60(TB) leukemia; test: NCI tumour cell line growth inhibition, 48 h; in the data active means GI50 below about 0.43 µM; inactive means the rest
Hi there, use one of these labels in your reply, thanks! true (active), false (inactive)

Would you please look over these solved cases?
C=C(C)[C@@H]1CC[C@]2(C(=O)N3CCN(C)CC3)CC[C@]3(C)[C@H](CC[C@@H]4[C@@]5(C)C/C(=C/c6ccncc6)[C@H](O)C(C)(C)[C@@H]5CC[C@]43C)[C@@H]12	false
O=c1ncc(I)c[nH]1	false
CCCCCCCC(=O)SCC/C=C/[C@@H]1CC(=O)NCc2cccc(n2)C2=N[C@@](C)(CS2)C(=O)N[C@@H](C(C)C)C(=O)O1	true
COc1ccccc1CN=C1NC(=O)/C(=C/c2ccc3ncccc3c2)S1	false
O=C1C2=C(C(=O)c3c(O)ccc(O)c31)N(c1cccnc1)Cc1ccccc1O2	true
COc1ccc(C2CC(c3ccc4ccccc4c3)=NN2/C=C2\SC(=S)N(NC(=O)Cc3ccccc3Nc3c(Cl)cccc3Cl)C2=O)cc1 (stereo unspecified)	true
Cc1ccccc1NC(=O)N/C(N)=N/c1nc(C)c(C)s1	true
COc1ccc(-c2cnc(SCC(=O)c3c(C)n(C)n(-c4ccccc4)c3=O)n2-c2ccc(OC)cc2)cc1	false
O=C(Nc1ccc(-n2ccc3c(NC(=O)c4ccccc4)ncnc32)cc1)Nc1ccc(Cl)c(C(F)(F)F)c1	false
COc1cc2c(cc1OCCCOc1cc3c(cc1OC)C(=O)N1CC(F)(F)C[C@H]1C=N3)N=C[C@@H]1CC(F)(F)CN1C2=O	true

Okay, now this compound:
IN: Outcome logged for COc1cc(/C=C/C(=O)c2ccc(F)cc2)ccc1OCCCCOc1cc2c(cc1OC)C(=O)N1CCCC1C=N2 (stereo unspecified) in this assay:
OUT: false

----------
tested on: SNB-75 CNS; assay: NCI tumour cell line growth inhibition, 48 h
MEASUREMENT TYPE: TGI (µM)
A number alone suffices; assume µM.

Consider the worked cases shown below.
COc1cc(/C=C/C(=O)c2ccc(F)cc2)ccc1OCCCCOc1cc2c(cc1OC)C(=O)N1CCCC1C=N2 (centres undefined)	15
C[C@]12CC[C@H](OC(=O)Cc3ccc(N(CCCl)CCCl)cc3)CC1CC[C@@H]1C2CC[C@]2(C)NC(=O)CCC12 (some centres undefined)	27.4
Cc1ccc(C(=O)Nc2ccc(CN3CCN(C)CC3)c(C(F)(F)F)c2)cc1C#Cc1cnc(N)c2ccc(C#N)cc12	13.4
OC1C2CCC3C2CC(C(O)(c2ccccc2)c2ccccc2)C13 (centres undefined)	43.9
O=C(/C=C/c1ccccc1)Nc1ncc(Cc2ccccc2)s1	1.99

IN: I am curious: what TGI value has been reported for `CCOC(=O)CC[C@H](NC(=O)c1ccc(CNc2nc3cc(C(F)(F)F)ccc3nc2C(=O)OCC)cc1)C(=O)OCC` ?
OUT: 41.3

IN: What do we get for `COc1cccc(-c2cc(=O)c3cc(C)c(C)c(C(=O)O)c3o2)c1` ?
OUT: 92.7

IN: Next compound up: `O=c1oc2cc(O)ccc2c(O)c1C(c1ccc2ccccc2c1)c1c(O)c2ccc(O)cc2oc1=O`
OUT: 37.7
